Recorded IC50, one value per entry.
Test system: P. falciparum CSL-2 (NRNL)
Assay: microbe, parasite or virus in culture
Format: cell-based
Details: Plasmodium falciparum, read-out: IC50 P. falciparum CSL-2 (NRNL)
MEASURED_ATTRIBUTE: IC50 (nM)

compound="CCc1nc(N)nc(N)c1OCCCOc1ccc(-c2c(N)nc(N)nc2CC)cc1 [BT2S]" unit_tag=nM test_value=3950
compound="CCc1nc(N)nc(N)c1-c1ccc(OCCCOc2ccc(-c3c(N)nc(N)nc3CC)cc2)cc1 [BT3S]" unit_tag=nM test_value=310
compound="CCc1nc(N)nc(N)c1OCCCOc1cccc(-c2c(N)nc(N)nc2CC)c1 [BT1]" unit_tag=nM test_value=510
compound="Cc1nc(N)nc(N)c1OCCCOc1cc(Cl)c(Cl)cc1Cl [P65, reference compound]" unit_tag=nM test_value=4400

###

Biological target: UniProt:P00374
Sequence (P00374 1-187): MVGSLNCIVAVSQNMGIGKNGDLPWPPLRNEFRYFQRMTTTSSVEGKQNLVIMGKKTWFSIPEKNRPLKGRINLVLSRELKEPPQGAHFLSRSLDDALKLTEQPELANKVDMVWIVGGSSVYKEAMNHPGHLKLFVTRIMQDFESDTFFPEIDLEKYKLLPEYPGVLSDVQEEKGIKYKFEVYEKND
Recorded Ki, one value per entry.
MEASURED_ATTRIBUTE: Ki (nM)

compound="Cc1nc(N)nc(N)c1OCCCOc1cc(Cl)c(Cl)cc1Cl [P65, reference compound]" measured_attribute=Ki test_value=47.6
compound="CCc1nc(N)nc(N)c1OCCCOc1ccc(-c2c(N)nc(N)nc2CC)cc1 [BT2S]" measured_attribute=Ki test_value=20.2
compound="CCc1nc(N)nc(N)c1OCCCOc1ccc(-c2c(N)nc(N)nc2CC)cc1 [BT2]" measured_attribute=Ki test_value=18.1
compound=CCc1nc(N)nc(N)c1-c1ccc(OCCCOc2ccc(-c3c(N)nc(N)nc3CC)cc2)cc1 measured_attribute=Ki test_value=33.6
compound=CCc1nc(N)nc(N)c1OCCCOc1cccc(-c2c(N)nc(N)nc2CC)c1 measured_attribute=Ki test_value=22.5

###

System: P. falciparum W2 (IRNI)
Experiment: microbe, parasite or virus in culture
Assay type: cell-based
Conditions: Plasmodium falciparum, W2, read-out: IC50 P. falciparum W2 (IRNI)
pIC50: −log10 of the molar value.
MEASURED_ATTRIBUTE: pIC50

compound=CCc1nc(N)nc(N)c1OCCCOc1ccc(-c2c(N)nc(N)nc2CC)cc1 system="P. falciparum W2 (IRNI)" measured_attribute=pIC50 test_value=5.63
compound="Cc1nc(N)nc(N)c1OCCCOc1cc(Cl)c(Cl)cc1Cl [P65, reference compound]" system="P. falciparum W2 (IRNI)" measured_attribute=pIC50 test_value=5.64
compound=CCc1nc(N)nc(N)c1OCCCOc1cccc(-c2c(N)nc(N)nc2CC)c1 system="P. falciparum W2 (IRNI)" measured_attribute=pIC50 test_value=6.60
compound=CCc1nc(N)nc(N)c1-c1ccc(OCCCOc2ccc(-c3c(N)nc(N)nc3CC)cc2)cc1 system="P. falciparum W2 (IRNI)" measured_attribute=pIC50 test_value=6.52
